The measurements presented in this section are drawn from patent US20240158392A1.

Target: SIK2 (Homo sapiens)
Sequence (Q9H0K1 whole entry, species assumed): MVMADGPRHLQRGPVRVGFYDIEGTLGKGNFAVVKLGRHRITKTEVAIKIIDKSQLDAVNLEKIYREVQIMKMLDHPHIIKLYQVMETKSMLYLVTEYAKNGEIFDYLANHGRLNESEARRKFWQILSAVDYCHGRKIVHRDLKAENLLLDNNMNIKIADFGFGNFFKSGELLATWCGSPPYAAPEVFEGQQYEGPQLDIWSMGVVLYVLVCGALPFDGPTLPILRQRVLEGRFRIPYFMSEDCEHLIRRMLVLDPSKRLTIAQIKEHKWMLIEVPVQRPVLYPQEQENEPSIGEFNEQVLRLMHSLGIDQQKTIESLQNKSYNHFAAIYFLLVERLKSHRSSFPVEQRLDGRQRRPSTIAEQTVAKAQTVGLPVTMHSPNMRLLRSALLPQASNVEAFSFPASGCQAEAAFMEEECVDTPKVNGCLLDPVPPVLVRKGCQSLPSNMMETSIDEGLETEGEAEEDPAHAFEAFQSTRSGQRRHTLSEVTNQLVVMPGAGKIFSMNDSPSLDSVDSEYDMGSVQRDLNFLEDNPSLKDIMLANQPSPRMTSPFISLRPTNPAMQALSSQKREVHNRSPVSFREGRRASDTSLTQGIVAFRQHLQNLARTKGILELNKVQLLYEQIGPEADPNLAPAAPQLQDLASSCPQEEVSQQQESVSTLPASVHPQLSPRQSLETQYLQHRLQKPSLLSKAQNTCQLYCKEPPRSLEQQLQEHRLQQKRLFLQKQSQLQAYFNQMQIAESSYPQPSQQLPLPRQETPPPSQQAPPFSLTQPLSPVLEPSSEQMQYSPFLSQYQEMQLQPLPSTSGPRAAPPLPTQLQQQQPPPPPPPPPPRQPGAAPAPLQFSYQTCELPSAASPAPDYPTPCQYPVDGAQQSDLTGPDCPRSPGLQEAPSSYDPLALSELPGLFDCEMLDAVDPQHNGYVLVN
Experiment: SIK2 Enzymatic Assay High Version 2 (High ATP)
Assay type: biochemical
Conditions: enzyme 6 nM, 6 mM ATP and 400 μM HDAC5tide (each 2× final concentration); 30 minutes pre-incubation, 2 hours; ADP-Glo Max luminescence; read-out: SIK2 high ATP IC50 (μM) (Test Example 2)
Mark satisfied only when IC50 stays strictly below 0.007 µM. Values equal to the cut-off are not satisfied.

Known results for compounds:
compound="Cc1cc(-c2ccn3nc(Nc4nn(C)c5ccccc45)cc3c2)c(OC[C@H]2OCC[C@@H]2O)cn1 [Example 299]" assigned_class=satisfied
compound="Cc1cc(-c2ccn3nc(Nc4ccc(S(=O)(=O)NC5CC5)cc4)cc3c2)c(O[C@H]2CC[C@H](O)CC2)cn1 [Example 323]" assigned_class="not satisfied"
compound="CO[C@@]1(COc2cnc(C)cc2-c2ccn3nc(NC(=O)C4CC4)cc3c2)CCNC1 (single isomer, unassigned) [Example 215]" assigned_class=satisfied
compound="CCNC(=O)c1c(OC)cc(Nc2cc3cc(-c4cc(C)ncc4O[C@H]4CC[C@H](O)CC4)ccn3n2)cc1OC [Example 243]" assigned_class="not satisfied"

Challenge: I wonder whether Cc1cc(Nc2cc3cc(-c4cc(OCC(F)F)ncc4OCC(C)(C)C#N)ccn3n2)nn(C2CC2)c1=O [Example 730] has IC50 below 0.007 µM. Can you tell?
Response given: not satisfied

Challenge: # check: IC50 < 0.007 µM for Cc1cc(-c2ccn3nc(NC(=O)C4CC4)cc3c2)c(OC[C@@H](O)C(F)(F)F)cn1 (single isomer, unassigned) [Example 454]
Response given: not satisfied

Challenge: is_below(IC50, 0.007 µM) for CC#Cc1cc(-c2ccn3nc(NC(=O)C4CC4)cc3c2)c(O[C@@H]2CNC[C@@H]2F)cn1 [Example 281] ?
Response given: satisfied
